The reported measurements were obtained from PubChem BioAssay AID434989.

inhibition reference
Target Entity: Orexin/Hypocretin receptor type 1 (Homo sapiens)
Test: blockers of orexin-A calcium signaling via HCRTR1 – fluorescence, CHO/OX1R cells, Fluo-8 calcium, primary screen (AID 434989);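 also: 0% = orexin A challenge wells and 100% = SB-334867-A antagonist wells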
Condition Set: Fluo-8 calcium fluorescence, at 5 µM, active compounds read high
About 1,400 (0.42%) of roughly 330,000 compounds were called active. The entries come from a sample that favours actives as a whole.
Form entry: value (%) — number only.

These solved cases illustrate the format of a correct answer.
IN: Give its inhibition value. Item: Cc1cc(C)cc(OCC(=O)NC(C)c2ccccc2)c1 (stereo not drawn)
OUT: -37.8

IN: Give its inhibition value. Item: O=C(C[C@@H]1C/C=C\CCC(=O)OC[C@@H]2CCCN2C1=O)NCCO
OUT: -14.7

IN: Give its inhibition value. Item: CC(C)N(C(=O)[C@H]1C[C@H](CC(=O)NC(C)(C)C)C(=O)N2CCc3c([nH]c4ccc(Cl)cc34)[C@]12C)C(C)C
OUT: -33.8

IN: Give its inhibition value. Item: CN(C)C(=O)CCc1ccc2c3c([nH]c2c1)[C@]1(C)[C@@H](C(=O)N2CCCCC2)C[C@H](CC(=O)NCCC2=CCCCC2)C(=O)N1CC3
OUT: -30.3

IN: Give its inhibition value. Item: O=C(NC(Cc1c[nH]c2ccccc12)C(=O)N/N=C/c1ccc(Br)cc1)c1cccs1 (stereo not drawn)
OUT: 52.5

Others:
IN: Give its inhibition value. Item: O=C(O)c1ccc2c3c(cccc13)C(=O)N(OS(=O)(=O)c1ccccc1)C2=O
OUT: -7.84

IN: Give its inhibition value. Item: COc1cccc2sc3cc(NCC[C@@H]4CCCN4C)ccc3c(=O)c12
OUT: -2.27

IN: Give its inhibition value. Item: CCOC(=O)C1CCN(c2ncnc3c2oc2ccc(Br)cc23)CC1
OUT: -11.1

IN: Give its inhibition value. Item: Nc1ncnc2c1ncn2[C@@H]1O[C@H](CNCc2cccn2-c2nccs2)[C@@H](O)[C@H]1O
OUT: -6.54

IN: Give its inhibition value. Item: O=C1CSc2ccc(C(=O)NCc3ccccn3)cc2N1
OUT: 7.19

IN: Give its inhibition value. Item: CC(=O)NC(Cc1c[nH]c2ccccc12)C(=O)O (stereo not drawn)
OUT: -1.34

IN: Give its inhibition value. Item: FC(F)(F)C1CCCN(c2nsc3ccccc23)C1 (stereo not drawn)
OUT: 46.1

IN: Give its inhibition value. Item: CCc1ccccc1OCC(=O)Nc1ccc2c(c1)OCCO2
OUT: 3.6

IN: Give its inhibition value. Item: O=C(NC(Cc1ccccc1)C(=O)N1CCCC(C(F)(F)F)C1)c1ccccc1 (stereo not drawn)
OUT: -34.6

IN: Give its inhibition value. Item: CCn1nnc2cc(C(=O)Nc3ccc(C(=O)OC(C)C)cc3)ccc21
OUT: -14.8

IN: Give its inhibition value. Item: COC(=O)[C@@]1(C)[C@H]2C(=O)N(Cc3ccccc3)C(=O)[C@H]2[C@H]2CN=C(SCC3CC3)N21
OUT: -26.2

IN: Give its inhibition value. Item: Cc1ccccc1OCC(=O)Nc1ccc(N2CCN(C(=O)C(C)C)CC2)c(Cl)c1
OUT: 47.2

IN: Give its inhibition value. Item: COc1ccc(CCNC(=O)c2cc3sccc3n2C)cc1OC
OUT: -27.4
